ASSAY PROCEDURE: chemical genetic growth profiling, strain panel (AID 1159580);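 note: tested at 20 µM; growth read once vehicle control cultures reached saturation at 30 °C; lower values mean less growth of the strain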
APPLIED CONDITIONS: S. cerevisiae deletion strains, growth OD, locus YPL241C, strain CIN2
Among all 5,500 compounds or so, about 2,000 (36%) were called active. Not shown: some 18% with an inconclusive outcome. Cut-off read from the data, not from the text of the source: active = normalized growth mostly below about 0.91 (no sharp cut-off); inconclusive = no clear call, values can overlap the other calls; inactive = mostly above about 0.92. The list shows a part of the results.
Thanks in advance; please answer with one of these: active, inactive

In: Tell me the assay call for O=C1C=CC2=C3c4cc(O)c(O)cc4C[C@@]3(O)COC2=C1 please.
Out: inactive

In: Hello, I am checking results. What call was entered for Cc1c(-c2ccnc(N)n2)nnn1-c1ccc(Cl)cc1Cl ?
Out: inactive
